Recorded values, source the NIST ThermoML archive (doi:10.1016/j.fluid.2012.01.014).

# experiment: cn = amount concentration of the nth substance listed, in mol/dm3
# studyConditions: 303 K, Ring tensiometer, c1 = 0.01
attributeMeasured: surface tension liquid-gas (mN/m)
Kindly answer with a numeric value in mN/m, unit omitted.

Consider the following illustrative entries.
1) CCCCCCCCCCCC[N+](C)(C)CC.[Br-] [dodecyl ethyl dimethylammonium bromide] + O
40.73
2) CCCCCCCCCCCC[N+](C)(C)Cc1ccccc1.[Br-] [benzenemethanaminium, N-dodecyl-N,N-dimethyl, bromide] + O
33.11

Task item: Give surface tension liquid-gas for CCCCCCCCCCCCCCCC[n+]1ccccc1.[Br-] [1-hexadecylpyridinium bromide] + O
Reply: 42.75

====

# experiment: cn = amount concentration of the nth substance listed, in mol/dm3
# studyConditions: 313 K, Ring tensiometer, c1 = 5.01e-06
Item-by-item account of surface tension liquid-gas
Kindly answer with a numeric value in mN/m, unit omitted.

1. CCCCCCCCCCCC[N+](C)(C)Cc1ccccc1.[Br-] [benzenemethanaminium, N-dodecyl-N,N-dimethyl, bromide] + O
68.59

Task item: Give surface tension liquid-gas for CCCCCCCCCCCC[N+](C)(C)CC.[Br-] [dodecyl ethyl dimethylammonium bromide] + O
Reply: 69.56

Task item: Give surface tension liquid-gas for CCCCCCCCCCCCN(C)CC(=O)[O-].[Na+] [sodium laurylsarcosinate] + O
Reply: 69.2

Task item: Give surface tension liquid-gas for CCCCCCCCCCCCCCCCS(=O)(=O)[O-].[Na+] [sodium hexadecylsulfonate] + O
Reply: 69.31
